System: BDF1 mice, P388 leukemia ip, median survival T/C
Test name: NCI In Vivo Anticancer Drug Screen. Data for tumor model P388 Leukemia (intraperitoneal) in B6D2F1 (BDF1) mice
Experimental setup: endpoint: median survival time; dose: 50.0 mg/kg/injection; schedule: Q01DX009 (ip); vehicle: saline with Tween-80; higher = longer survival
Toxic doses and inconclusive results are not listed.
I'd be grateful if you could share measured T/C for these entries.

// field: T/C; key: "O=C(O)c1csc(-c2csc(CCNC(=O)C(F)(F)F)n2)n1" ; value = 94 % of control

For this compound ( c1ccc(C2OC3(CCCCC3)C[N+]23CCCC3)cc1 (configuration not stated) ), measured T/C is 113 % of control

T/C in this record for "NC(=S)N/N=C/c1ccc(NC(=O)c2ccccc2C(=O)O)cc1" : 87 % of control

The measured T/C associated with CCCCC(C)C(=O)CC(SCC)c1ccccc1 (configuration not stated) reads 103 % of control

Record summary for CC(C)(C)C(=O)C(Oc1ccc(Cl)cc1)n1cncn1 (configuration not stated) : reported T/C = 100 % of control

Lab note: "c1ccc(CNc2ncncc2-c2ccccc2)cc1" gave T/C of 98 % of control

What the record says about "Nc1ccc(OCCCCNC(=O)c2ccc(S(=O)(=O)F)cc2)c(Cl)c1" : T/C is 110 % of control

# compound "C[Si](C)(C)O/C=C1/CCOC1=O" ; its T/C = 102 % of control

Reported T/C ( "COC(=O)/C=C(\C)Oc1cc(Cl)c(Cl)cc1Cl" ) = 100 % of control

T/C for "O=C(O)c1ccc(COc2ccc([N+](=O)[O-])cc2Cl)cc1" is 91 % of control

Recorded T/C (compound CN(C)C1CCc2ccccc2C1OC(=O)/C=C/c1ccccc1 (configuration not stated) ): 102 % of control

Note to self: T/C recorded for "Cc1ccc(S(=O)(=O)Cl)c(Cl)c1" was 116 % of control

====

System: BDF1 mice, P388 leukemia ip, median survival T/C
Test name: NCI In Vivo Anticancer Drug Screen. Data for tumor model P388 Leukemia (intraperitoneal) in B6D2F1 (BDF1) mice
Experimental setup: endpoint: median survival time; dose: 50.0 mg/kg/injection; schedule: Q01DX001 (ip); vehicle: saline with Tween-80; higher = longer survival
Inconclusive results and toxic doses are left out.
Readout name: T/C

Per the reported BDF1 mice, P388 leukemia ip, median survival T/C data, CC1=CC=CC(C)(Cc2ccc(-c3ccc(CC4(C)C=CC=C(C)C4=O)cc3)cc2)C1=O (centres undefined) has T/C of 95 % of control

Test item COC1CCC(C=O)C(C#N)(C#N)C1(C#N)C#N (centres undefined) ; BDF1 mice, P388 leukemia ip, median survival T/C; reported T/C was 112 % of control

Response field T/C (BDF1 mice, P388 leukemia ip, median survival T/C) for item "CCOC(=O)C(CCCO)C(=O)OCC" : 115 % of control

Per the reported BDF1 mice, P388 leukemia ip, median survival T/C data, "O=C(O)c1ccc2cc(O)ccc2c1" has T/C of 100 % of control

====

System: BDF1 mice, P388 leukemia ip, median survival T/C
Test name: NCI In Vivo Anticancer Drug Screen. Data for tumor model P388 Leukemia (intraperitoneal) in B6D2F1 (BDF1) mice
Experimental setup: endpoint: median survival time; dose: 200.0 mg/kg/injection; schedule: Q01DX009 (ip); vehicle: Klucel (hydroxypropylcellulose) (HPC); higher = longer survival
Method: The antitumor activity of compounds was measured in mice bearing transplantable tumors. Survival or tumor size were measured and the results are expressed as the measurement made in the treated group (T) divided by the measurement made in the vehicle treated control group (C). The tumor model used in this assay is P388 Leukemia (intraperitoneal) in B6D2F1 (BDF1) mice
Inconclusive results and toxic doses are left out.
What T/C was measured for each of the following?

The value of T/C measured for the molecule "COC(=O)c1cc(C)c(Br)c(N)c1" turned out to be 100 % of control

Reported T/C of "COc1ccc(C(=S)N(C)NC(=O)CC(=O)NN(C)C(=S)c2ccc(OC)cc2)cc1" : 100 % of control

Query "CC(C)(C)C(=O)CC(=O)C(F)(F)C(F)(F)C(F)(F)F.CC(C)(C)C(=O)CC(=O)C(F)(F)C(F)(F)C(F)(F)F.CC(C)(C)C(=O)CC(=O)C(F)(F)C(F)(F)C(F)(F)F.[Fe]" yields T/C of 114 % of control

Lab book: T/C of C=CC(C)(O)CCC1C(=C)CCC2C(C)(C)CCCC12C (stereo not given) noted as 86 % of control

Lab book: T/C of "C/C=C(\CC)C(=O)NC(N)=O" noted as 100 % of control

====

Test system: BDF1 mice, P388 leukemia ip, median survival T/C
Test name: NCI In Vivo Anticancer Drug Screen. Data for tumor model P388 Leukemia (intraperitoneal) in B6D2F1 (BDF1) mice
Experimental setup: endpoint: median survival time; dose: 200.0 mg/kg/injection; schedule: Q04DX003 (ip); vehicle: saline with Tween-80; higher = longer survival
Toxic doses and inconclusive results are not listed.
So I've got a bunch of compounds here, and I need their T/C values.

The compound listed as COc1ccc(C(C)c2ccccc2)cc1C(C)c1ccccc1 (centres undefined) shows T/C equal to 90 % of control

In plain terms, "O=C(Cl)c1ccc(N2C(=O)c3ccccc3C2=O)cc1[N+](=O)[O-]" has a documented T/C of 100 % of control

Please fill in: T/C reported for "O=Cc1[nH]c(=S)[nH]c(=O)c1Cc1ccc([N+](=O)[O-])cc1" = 95 % of control

The compound listed as "O=S(=O)(O)O.[Ga]" shows T/C equal to 123 % of control

# T/C (compound: CC(Br)C(=O)NC(Cc1ccccc1)C(=O)O (centres undefined) ) is 100 % of control

Consider "CCOC(=O)c1cnc2ccc(OC)cc2c1Cl" . Its measured T/C is 103 % of control

// recorded T/C for "Cc1cc(NC(=O)c2ccccc2)c(Cl)cc1N" : 95 % of control

Please fill in: T/C reported for "C=CCC1(CC)C(=O)NC(=O)NC1=O" = 91 % of control

Lab note: "Nc1[nH]nc2nccnc12" gave T/C of 104 % of control

The value of T/C measured for the compound "Nc1ncnc2c1cnn2CCCl" turned out to be 118 % of control

T/C reported for this compound "COc1ccccc1Cl" : 104 % of control

What the record says about "Cc1ccc2c(c1)nc1c3ccccc3nnn21" : T/C is 107 % of control

Quick note, T/C for "Cc1c(Cl)cc(Cl)c(N)c1Cl" landed at 100 % of control

T/C in this record for "O=[N+]([O-])c1cccc2c1CCCC2" : 110 % of control

====

Test system: BDF1 mice, P388 leukemia ip, median survival T/C
Test name: NCI In Vivo Anticancer Drug Screen. Data for tumor model P388 Leukemia (intraperitoneal) in B6D2F1 (BDF1) mice
Experimental setup: endpoint: median survival time; dose: 6.25 mg/kg/injection; schedule: Q01DX009 (ip); vehicle: saline with Tween-80
Inconclusive results and toxic doses are left out. The calls were made as follows: active = survival T/C of 150% or more; inactive = T/C below 125% in these data.
Answer with one of the outcomes TRUE = active, FALSE = inactive

Record lookup: outcome of this test for CNC(C)(C)C(SS)c1ccc(Cl)cc1 (stereo not drawn) ? FALSE

Which outcome was entered for the compound COC1C(O)C(C)OC(OC2C(Oc3cccc4c(O)c5c(=O)oc6ccc(C)c7c(=O)oc(c34)c5c67)OC(C)C(O)C2O)C1O (stereo not drawn) in this test? TRUE

Called result for "c1ccc2c(c1)ccc1cc3cc(NCCCCNc4ccc5nc6c(ccc7ccccc76)cc5c4)ccc3nc12" FALSE

Recorded test outcome, item "S=C1Cc2[nH]c(=S)sc(=S)c2C(=S)N1" FALSE

Called result for CC(C)CC(CC(C)C)NCC(C)OC(=O)c1ccc(N)cc1 (stereo not drawn) FALSE

// param item: "CC1=C(/C=C/C(C)=C/C=C/C(C)=C/C(=O)O)C(C)(C)CCC1" ; yields the recorded call FALSE

Field: outcome | Entry: "Cc1c(O)ccc([N+](=O)[O-])c1O" FALSE

Query: recorded result category for "COc1cc(O)c2c(c1)Cc1cc(C)cc(O)c1C2=O" in this test FALSE

Status in this test for "CN1CCN(C(=O)Cc2c[nH]c3ccccc23)CC1" ? FALSE

Check the results log: what was the call for "C=C1C(=O)[C@]23C[C@H]1CC[C@H]2[C@@]12CO[C@@H](O)[C@@H]1C(C)(C)[C@@H](O)C[C@@H]2OC3=O" ? FALSE

Lab log entry: "Cc1cccc(C)c1NC(=S)N(C)C" — outcome as called in the assay? FALSE

What outcome does the record of this test show for "CC(/C=C/C(O)=C1/C(=O)CNC1=O)=C\[C@@H](C)[C@H]1O[C@@]2(C)O[C@H](C(=O)[C@@H]3O[C@@]32C)[C@@H]1C" ? FALSE

// outcome(item) with item = "c1cc[c]([Pb]([c]2ccccc2)[c]2ccccc2)cc1.c1cc[c]([Pb]([c]2ccccc2)[c]2ccccc2)cc1" FALSE
